- Assay Notes: Assay B: Microsomal clearance
- Assay type: in vitro ADME, human
- Condition Notes: pooled liver microsomes, 1 μM test compound, 37° C., NADPH
- Protocol: Assay B: Microsomal Clearance: The metabolic degradation of the test compound is assayed at 37° C. with pooled liver microsomes. The final incubation volume of 100 μl per time point contains TRIS buffer pH 7.6 at RT (0.1 M), magnesium chloride (5 mM), microsomal protein (1 mg/ml) and the test compound at a final concentration of 1 μM. […] The intrinsic clearance (CL_[…]) is calculated by considering the amount of protein in the incubation: CL_[…] […]
Reported human LM [% Qh] values follow for various compounds

Exam item: What does the record list as human LM [% Qh] for `NC(=O)c1csc2ncn(Cc3nnn(C[C@H](O)c4cc5ccccc5s4)n3)c(=O)c12` ?
Marked response: 28 % Qh

Continuing:
Exam item: What does the record list as human LM [% Qh] for `N#Cc1cc2ccc([C@@H](O)Cn3nnc(Cn4cnc5scc(C(N)=O)c5c4=O)n3)cc2o1` ?
Marked response: <23 % Qh

Exam item: What does the record list as human LM [% Qh] for `NC(=O)c1csc2ncn(Cc3nnn(C[C@H](O)c4cc5cc(F)ccc5o4)n3)c(=O)c12` ?
Marked response: <23 % Qh

Exam item: What does the record list as human LM [% Qh] for `NC(=O)c1csc2ncn(Cc3nnn(C[C@H](O)c4ccc(Br)cc4)n3)c(=O)c12` ?
Marked response: <23 % Qh
